Data credit: patent US8546392B2

Catalogue of inhibition at 1 µM values
target: 17β-HSD1 (Homo sapiens (Human), UniProt P14061); assay: 17β-HSD1 test assay (recombinant protein from Sf9 insect cells, 3H-estrone/NADPH); format: biochemical; settings: read-out: HSD 1 μM (% inhibition of HSD1); inhibitor 1 μM
Sequence (P14061 whole entry): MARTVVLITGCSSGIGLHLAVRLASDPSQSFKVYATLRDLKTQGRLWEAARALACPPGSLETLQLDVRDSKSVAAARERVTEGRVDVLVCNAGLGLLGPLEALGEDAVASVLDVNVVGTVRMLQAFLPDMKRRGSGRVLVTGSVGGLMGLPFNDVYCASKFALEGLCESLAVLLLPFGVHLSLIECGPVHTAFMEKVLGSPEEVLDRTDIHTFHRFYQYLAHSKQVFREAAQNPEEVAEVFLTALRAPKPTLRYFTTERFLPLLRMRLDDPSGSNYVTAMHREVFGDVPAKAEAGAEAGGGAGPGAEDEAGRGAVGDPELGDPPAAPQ
Please state the figure in %; there is no need to write the unit.

The recorded inhibition at 1 µM for entry CNC(=O)c1cc2cc(-c3cccc(O)c3)ccc2cc1O [Compound 37] equals 18

The compound listed as Cc1ccc(S(=O)(=O)c2c(O)ccc3cc(-c4cccc(O)c4)ccc23)cc1 [Compound 92] shows inhibition at 1 µM equal to 75

inhibition at 1 µM recorded for this compound, O=C(O)c1cccc(-c2c(O)ccc3cc(-c4cccc(O)c4)ccc23)c1 [Compound 63] , is 80

Summary for this compound, Oc1cccc(-c2ccc3c(Br)c(O)ccc3c2)c1 [Compound 52] : inhibition at 1 µM is 88.4

Per the records, this compound ( O=S(=O)(Nc1cccc(-c2c(O)ccc3cc(-c4cccc(O)c4)ccc23)c1)c1cc(F)c(Br)cc1F [Compound 89] ) has inhibition at 1 µM equal to 78.2

According to the records, this compound CC(=O)Nc1ccc(S(=O)(=O)Nc2cccc(-c3c(O)ccc4cc(-c5cccc(O)c5)ccc34)c2)cc1 [Compound 79] displays inhibition at 1 µM of 80.2

// below: inhibition at 1 µM requested for another compound
So for O=S(=O)(Nc1cccc(-c2c(O)ccc3cc(-c4cccc(O)c4)ccc23)c1)c1cccs1 [Compound 87] , the logged inhibition at 1 µM turned out to be 80.6
